Hey, just so you know, these numbers are from patent US20250041437A1.

Record form. Attribute: ka. Fill in for each entry.
- Target of assay: T1, recombinant human MUC1-SEA (Homo sapiens, UniProt P15941)
- T1 construct: on recombinant human MUC1-SEA on SPR; purchased Acrobiosystems MU1-H52H9
- T1 sequence (P15941 1039-1148 limits assumed): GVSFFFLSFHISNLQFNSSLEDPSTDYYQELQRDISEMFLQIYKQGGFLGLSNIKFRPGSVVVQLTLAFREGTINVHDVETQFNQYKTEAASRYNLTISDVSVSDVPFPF
- Experimental protocol: Binding strength by Surface Plasmon Resonance (SPR)
- Condition context: Table 2, variants of humanized anti-MUC1 5F3 mAb
- Description: Binding strength assessment using Surface Plasmon Resonance (SPR): MUC1 antigen (Acrobiosystems, Cat: MU1-H52H9) was captured on the anti-His immobilized on CM5 chip at 5 μl/min flow rate for 60 s. […] The dose response generated is evaluated on BIAevaluation software for the calculation of affinity of antibody to antigen as measured by dissociation constant (KD).
Kindly answer with a numeric value in M⁻¹ s⁻¹, unit omitted.

Documented ka of HM2 LM3: variant of SP66; VH HM2 SEQ ID NO: 8, VL LM3 SEQ ID NO: 14 (antibody, V domains shown) VH: EIQLVQSGAEVKKPGSSVKVSCKVTGHSITRGSSWHWMRQAPGQGLEWIGYIHYGGGTSYNPSLKSRITITRDTSTNTAYMELSSLRSEDTAFYFCARYSYDITYRWFFDVWGQGTLVTVSS VL: DIQMTQSPSTLSASVGDRVTITCRASQNIGTSIHWYQQKPGKAPKLLIKYASESISGVPSRFSGSGSGTEFTLTISSLQPDDFATYYCQQNNNWPLTFGQGTKVEVK : 3.14e+06

// recorded ka for HM3 LM3: variant of SP66; VH HM3 SEQ ID NO: 9, VL LM3 SEQ ID NO: 14 (antibody, V domains shown) VH: EIQLVQSGAEVKKPGSSVKVSCKVTGHSITRGSSWHWMRQAPGQGLEWIGYIHYGGGTSYNPSLKSRATLTRDTSTNTAYMELSSLRSEDTAFYFCARYSYDITYRWFFDVWGQGTLVTVSS VL: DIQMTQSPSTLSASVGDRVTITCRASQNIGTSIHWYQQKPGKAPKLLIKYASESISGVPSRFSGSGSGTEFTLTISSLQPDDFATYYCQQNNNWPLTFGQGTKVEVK : 4.47e+07
